All figures here come from paper PMC11711049.

- assay-details: Plasma pharmacokinetics
- Assay type: in vivo, human
- setup-conditions: human, plasma, oral, 140 mg, C max, mean ± SD, Steady state (cycle 1, day 8); Gastric cancer N = 10; 140 mg once daily
measure: Cmax (ng/mL)
Kindly answer with a numeric value in ng/mL, unit omitted.

Prompt: GET /values?readout=Cmax&item= CNC(=O)n1ccc2cc(Oc3ccnc(NC(=O)c4ccc(C5CCN(CCO)CC5)cc4)c3)c(OCCOC)cc21
Response: 294
